Cited source for all entries: patent US20210301026A1

Here the recorded Kd is given for each entry.
- Study system: T1, monomeric cynomolgus monkey CSF1R ectodomain protein (cynomolgus monkey, UniProt P07333 20-517 (human entry))
- T1 construct: also called monomeric cyno CSF1R; Cyno CSF1R
- T1 chain: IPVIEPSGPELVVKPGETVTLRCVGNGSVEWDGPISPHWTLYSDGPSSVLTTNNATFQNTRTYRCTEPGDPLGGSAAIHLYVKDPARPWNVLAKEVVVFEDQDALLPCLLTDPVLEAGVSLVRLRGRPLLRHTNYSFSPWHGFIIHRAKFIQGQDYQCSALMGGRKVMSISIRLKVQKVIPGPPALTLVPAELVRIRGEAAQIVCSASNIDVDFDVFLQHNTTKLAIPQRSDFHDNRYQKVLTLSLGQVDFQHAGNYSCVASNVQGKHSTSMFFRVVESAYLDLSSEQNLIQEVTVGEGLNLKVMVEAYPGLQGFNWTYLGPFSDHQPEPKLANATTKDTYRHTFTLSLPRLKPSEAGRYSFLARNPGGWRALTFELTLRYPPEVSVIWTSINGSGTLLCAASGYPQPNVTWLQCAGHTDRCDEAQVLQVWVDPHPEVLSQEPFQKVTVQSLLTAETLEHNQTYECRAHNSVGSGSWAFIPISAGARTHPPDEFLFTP
- Protocol details: SPR Biacore, IgG captured, monomeric CSF1R analyte

Binder	Kd / nM
MH33 (antibody, human IgG4, V domains shown, Deimmunized MH5 derivative, human IgG4(S228P)/Ckappa IgG) VH: QVQLVQSGAEVKKPGSSVKVSCKASGYTFSSAYMIWVRQAPGQGLEWMGDINPYNGGANYAQKFQGRVTITADESTSTAYMELSSLRSEDTAVYYCAREGPYFSNLYVMDYWGRGTLVTVSS VL: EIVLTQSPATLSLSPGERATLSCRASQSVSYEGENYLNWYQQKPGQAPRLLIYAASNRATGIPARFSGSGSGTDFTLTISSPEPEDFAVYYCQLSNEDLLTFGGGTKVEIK	1.74
MH5 (antibody, human IgG4, V domains shown, Designer (maximally humanized) clone; tested as human IgG4(S228P)/Ckappa IgG; also called mAb-2) VH: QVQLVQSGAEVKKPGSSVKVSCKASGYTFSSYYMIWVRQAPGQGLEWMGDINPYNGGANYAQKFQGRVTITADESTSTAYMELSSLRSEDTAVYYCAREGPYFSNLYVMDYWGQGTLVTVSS VL: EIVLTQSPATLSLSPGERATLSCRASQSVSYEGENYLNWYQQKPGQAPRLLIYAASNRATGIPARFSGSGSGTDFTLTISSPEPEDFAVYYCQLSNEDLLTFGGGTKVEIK	0.62
MH11 (antibody, human IgG4, V domains shown, Deimmunized MH5 derivative, human IgG4(S228P)/Ckappa IgG) VH: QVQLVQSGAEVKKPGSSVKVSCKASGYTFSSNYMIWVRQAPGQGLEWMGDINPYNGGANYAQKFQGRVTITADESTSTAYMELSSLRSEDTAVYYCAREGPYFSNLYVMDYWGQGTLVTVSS VL: EIVLTQSPATLSLSPGERATLSCRASQSVSYEGENYLNWYQQKPGQAPRAAIYAASNRATGIPARFSGSGSGTDFTLTISSPEPEDFAVYYCQLSNEDLLTFGGGTKVEIK	1.29
MH40 (antibody, human IgG4, V domains shown, Deimmunized MH5 derivative, human IgG4(S228P)/Ckappa IgG) VH: QVQLVQSGAEVKKPGSSVKVSCKASGYTFSSHYMIWVRQAPGQGLEWMGDINPYNGGANYAQKFQGRVTITADESTSTAYMELSSLRSEDTAVYYCAREGPYFSNLYVMDYWGRGTLVTVSS VL: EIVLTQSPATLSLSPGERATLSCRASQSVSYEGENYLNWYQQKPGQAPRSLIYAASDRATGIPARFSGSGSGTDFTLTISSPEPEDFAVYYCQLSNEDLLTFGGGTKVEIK	0.948
MH10 (antibody, human IgG4, V domains shown, Deimmunized MH5 derivative, human IgG4(S228P)/Ckappa IgG) VH: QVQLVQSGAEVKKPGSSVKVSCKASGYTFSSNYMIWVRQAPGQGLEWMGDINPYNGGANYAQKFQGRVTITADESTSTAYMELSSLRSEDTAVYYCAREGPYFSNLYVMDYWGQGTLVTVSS VL: EIVLTQSPATLSLSPGERATLSCRASQSVSYEGENYLNWYQQKPGQAPRSAIYAASNRATGIPARFSGSGSGTDFTLTISSPEPEDFAVYYCQLSNEDLLTFGGGTKVEIK	1.07
